tested on: Glycine max (GLXMA, soybean); experiment: Test 2 glasshouse assay (IF50 formulation, X-77), post-emergence herbicidal activity; format: in vivo; settings: 360 h, application rate 125 g/ha, 15 DAA, visual score, read-out: Post-emergence herbicidal activity (percentage phytotoxicity) GLXMA
plant injury at 125 g/ha: recorded values
RECORDED ENDPOINT: plant injury at 125 g/ha (%)

{"columns": ["COMPOUND", "EXPERIMENTAL VALUE"],
 "data": [
  ["C#CCC1CC(=O)C(c2c(Cl)cc(-c3ccc(F)cc3F)cc2OC)C1=O (stereo not shown)", 0],
  ["C#CCC1CC(=O)C(c2c(F)cc(-c3ccc(F)c(F)c3)cc2OC)C1=O (stereo not shown)", 40],
  ["C#CCC1CC(OC(C)=O)=C(c2c(C)cc(-c3ccc(F)cc3)cc2C)C1=O (stereo not shown)", 10],
  ["C#CCC1CC(=O)C(c2c(C)cc(-c3ccc(F)cc3)cc2C)C1=O (stereo not shown)", 0],
  ["C#CCC1CC(=O)C(c2c(F)cc(-c3ccc(Cl)cc3)cc2Cl)C1=O (stereo not shown)", 10],
  ["C#CCC1CC(=O)C(c2c(CC)cc(C)cc2CC)C1=O (stereo not shown)", 0],
  ["C#CCC1CC(=O)C(c2c(F)cc(-c3ccc(Cl)cc3)cc2OC)C1=O (stereo not shown)", 0],
  ["C#CCC1C(=O)C(c2c(C)cc(C)cc2C)C(=O)C1CC#C (stereo not shown)", 10],
  ["C#CCC1CC(=O)C(c2c(C)cc(C)cc2C)C1=O (stereo not shown)", 0],
  ["C#CCC1CC(=O)C(c2c(Cl)cc(-c3ccc(F)c(F)c3)cc2OC)C1=O (stereo not shown)", 30]
]}

---

pest or weed control at 30 g/ha: recorded values
Test system: Setaria faberi (SETFA)
Test: Test 2 glasshouse assay (IF50 formulation, X-77), post-emergence herbicidal activity
Format: in vivo
Settings: 360 h, application rate 30 g/ha, 15 DAA, visual score, read-out: Post-emergence herbicidal activity (percentage phytotoxicity) SETFA
Description: Seeds of a variety of monocotyledonous and dicotyledonous test plants are sown in standard soil in pots. The plants are cultivated for one day (for pre-emergence) or for about 12 days (for post-emergence) under controlled conditions in a glasshouse (warm climate species at 24/18° C., cool climate species at 20/16° C., both at day/night; 16 hours light; 65% humidity). […]

{"columns": ["MOLECULE", "pest or weed control at 30 g/ha, %"],
 "data": [
  ["C#CCC1CC(=O)C(c2c(Cl)cc(-c3ccc(Cl)cn3)cc2OC)C1=O (stereo not drawn) [Compound A10]", 100],
  ["C#CCC1CC(=O)C(c2c(C)cc(-c3ccc(F)cc3)cc2C)C1=O (stereo not drawn) [Compound A1]", 90],
  ["C#CCC1CC(=O)C(c2c(F)cc(-c3ccc(F)c(F)c3)cc2OC)C1=O (stereo not drawn) [Compound A22]", 80],
  ["C#CCC1CC(=O)C(c2c(Cl)cc(-c3ccc(F)c(F)c3)cc2OC)C1=O (stereo not drawn) [Compound A13]", 100],
  ["C#CCC1CC(=O)C(c2c(Cl)cc(-c3ccc(F)cc3)cc2OC)C1=O (stereo not drawn) [Compound A7]", 90],
  ["C#CCC1CC(=O)C(c2c(CC)cc(C)cc2CC)C1=O (stereo not drawn) [Compound A25]", 90],
  ["C#CCC1CC(=O)C(c2c(Cl)cc(-c3ccc(F)cc3F)cc2OC)C1=O (stereo not drawn) [Compound A12]", 20],
  ["C#CCC1CC(=O)C(c2c(Cl)cc(-c3ccc(Cl)cc3)cc2OC)C1=O (stereo not drawn) [Compound A11]", 80],
  ["C#CCC1CC(OC(C)=O)=C(c2c(C)cc(-c3ccc(F)cc3)cc2C)C1=O (stereo not drawn) [Compound A45]", 90],
  ["C#CCC1CC(=O)C(c2c(C)cc(-c3ncc(Cl)cc3F)cc2C)C1=O (stereo not drawn) [Compound A3]", 100],
  ["C#CCC1CC(=O)C(c2c(F)cc(-c3ccc(Cl)cn3)cc2Cl)C1=O (stereo not drawn) [Compound A8]", 90],
  ["C#CCC1CC(=O)C(c2c(C)cc(-c3ccc(Cl)cn3)cc2C)C1=O (stereo not drawn) [Compound A2]", 100]
]}

Origin of the recorded values: patent US10375956B2
